- measured_on: human ether-a-go-go related gene (hERG) channel (Homo sapiens)
- Construct: expressed in transfected cells; host or cells: CHO cells
- Sequence (Q12809 whole entry): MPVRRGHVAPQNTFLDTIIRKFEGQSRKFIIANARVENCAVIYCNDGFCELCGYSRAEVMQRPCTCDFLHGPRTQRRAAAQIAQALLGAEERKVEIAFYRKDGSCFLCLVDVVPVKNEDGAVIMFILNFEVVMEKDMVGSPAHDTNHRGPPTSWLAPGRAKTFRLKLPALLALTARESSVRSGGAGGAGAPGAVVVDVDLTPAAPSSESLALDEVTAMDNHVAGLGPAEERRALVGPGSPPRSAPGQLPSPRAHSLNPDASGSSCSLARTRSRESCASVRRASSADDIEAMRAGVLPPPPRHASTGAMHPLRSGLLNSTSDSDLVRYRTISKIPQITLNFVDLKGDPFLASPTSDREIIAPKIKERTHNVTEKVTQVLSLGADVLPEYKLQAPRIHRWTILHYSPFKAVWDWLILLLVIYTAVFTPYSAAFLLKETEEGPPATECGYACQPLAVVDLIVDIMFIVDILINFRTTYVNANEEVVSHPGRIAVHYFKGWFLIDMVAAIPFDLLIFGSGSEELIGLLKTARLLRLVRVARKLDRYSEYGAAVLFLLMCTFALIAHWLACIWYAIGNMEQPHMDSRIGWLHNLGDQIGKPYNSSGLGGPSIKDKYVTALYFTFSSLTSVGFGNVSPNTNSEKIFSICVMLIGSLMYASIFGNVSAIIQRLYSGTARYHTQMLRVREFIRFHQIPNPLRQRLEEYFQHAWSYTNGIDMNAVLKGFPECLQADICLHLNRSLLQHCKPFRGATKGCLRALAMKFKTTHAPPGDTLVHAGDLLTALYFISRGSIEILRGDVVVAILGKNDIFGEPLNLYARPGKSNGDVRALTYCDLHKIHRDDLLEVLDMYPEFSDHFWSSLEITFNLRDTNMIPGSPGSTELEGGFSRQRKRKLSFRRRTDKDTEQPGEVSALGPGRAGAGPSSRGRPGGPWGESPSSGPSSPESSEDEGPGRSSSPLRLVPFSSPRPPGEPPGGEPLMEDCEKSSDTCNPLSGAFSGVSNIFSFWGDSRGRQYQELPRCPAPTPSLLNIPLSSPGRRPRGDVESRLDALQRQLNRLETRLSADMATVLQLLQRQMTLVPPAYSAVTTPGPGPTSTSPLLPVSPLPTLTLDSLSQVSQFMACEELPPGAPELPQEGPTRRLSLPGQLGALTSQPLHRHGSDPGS
- assay_procedure: Test Example 3: hERG test (FluxORII thallium flux, FLIPR, 8000 cells/well)
- Format: cell-based
- condition_summary: CHO cells expressing hERG channel, compound reacted for 10 minutes, 100% inhibition = E-4031 10.3 µmol/L
In this section we review reported IC50 values for a set of compounds.

compound | IC50
Cc1cnn(C)c1-c1cc(Nc2ncc(C(F)(F)F)cc2F)ncc1OCCO [Compound I-063] | > 52 µM

**Q:** Record request: IC50 value, item Cn1ncc(Br)c1-c1cc(Nc2ncc(C(F)(F)F)cc2F)ncc1OCCO [Compound I-062]
**A:** > 52 µM

---

In this section we review reported pKi values for a set of compounds.
- measured_on: human recombinant 5-HT2A receptor (Homo sapiens)
- Construct: expressed in transfected cells; host or cells: Jump-In HEK cells (membrane preparation)
- assay_procedure: Test Example 1-2: 5-HT2A receptor binding inhibition test ([3H]-Ketanserin; non-specific ligand Ketanserin)
- condition_summary: [3H]-Ketanserin; non-specific binding with 500 µmol/L Ketanserin; room temperature (25°C), 1.5 hours; read-out: h 5-HT2A Ki
Worth noting: pKi values are minus log10 of concentrations stated in mol/L.

Example results:
structure_smiles_string | pKi
Cn1ncc(Br)c1-c1cc(Nc2ncc(C(F)(F)F)cn2)ccc1OCCO | 9.50
Cn1cnc(Br)c1-c1cc(Nc2ncc(Cl)cc2F)ccc1OCCO | 9.47
Cn1ncc(Br)c1-c1cc(Nc2ncc(Cl)cn2)c(Cl)cc1OCCO | 9.24
Cn1ncc(Br)c1-c1cc(Nc2nc3ccccc3s2)ccc1OCCO | 9.54

Let's switch to this compound now.
**Q:** Record request: pKi value, item "Cn1ncc(Br)c1-c1cc(Nc2ncccc2F)ccc1OCCO"
**A:** 9.63

---

- measured_on: human recombinant 5-HT2A receptor (Homo sapiens)
- Construct: expressed in transfected cells; host or cells: Jump-In HEK cells (membrane preparation)
- assay_procedure: Test Example 1-2: 5-HT2A receptor binding inhibition test ([3H]-Ketanserin; non-specific ligand Ketanserin)
- condition_summary: [3H]-Ketanserin; non-specific binding with 500 µmol/L Ketanserin; room temperature (25°C), 1.5 hours; read-out: h 5-HT2A Ki
measured_metric: pKi
Worth noting: pKi values are minus log10 of concentrations stated in mol/L.

Example results:
molecule | test_value
OCCOc1ccc(Nc2ncc(C(F)(F)F)cc2F)cc1-c1c(F)cccc1Cl [Compound I-019] | 9.26
Cc1cnn(Cc2nc(C)c(-c3cc(Nc4ncc(C(F)(F)F)cc4Cl)ncc3OCCO)c(C)n2)c1 [Compound I-379] | 8.95
Cn1ncc(Br)c1-c1cc(Nc2ccc(OCC(F)(F)F)cn2)ncc1OCCO [Compound I-307] | 9.66

Let's switch to this molecule now.
**Q:** Record request: pKi value, item Cn1ncc(Cl)c1-c1cc(Nc2ncc(C(F)(F)F)cc2F)cnc1OCCO [Compound I-142]
**A:** 9.57

---

- measured_on: human recombinant 5-HT2A receptor (Homo sapiens, UniProt P28223)
- Construct: expressed in transfected cells; host or cells: Jump-In HEK cells (membrane preparation)
- Sequence (P28223 whole entry): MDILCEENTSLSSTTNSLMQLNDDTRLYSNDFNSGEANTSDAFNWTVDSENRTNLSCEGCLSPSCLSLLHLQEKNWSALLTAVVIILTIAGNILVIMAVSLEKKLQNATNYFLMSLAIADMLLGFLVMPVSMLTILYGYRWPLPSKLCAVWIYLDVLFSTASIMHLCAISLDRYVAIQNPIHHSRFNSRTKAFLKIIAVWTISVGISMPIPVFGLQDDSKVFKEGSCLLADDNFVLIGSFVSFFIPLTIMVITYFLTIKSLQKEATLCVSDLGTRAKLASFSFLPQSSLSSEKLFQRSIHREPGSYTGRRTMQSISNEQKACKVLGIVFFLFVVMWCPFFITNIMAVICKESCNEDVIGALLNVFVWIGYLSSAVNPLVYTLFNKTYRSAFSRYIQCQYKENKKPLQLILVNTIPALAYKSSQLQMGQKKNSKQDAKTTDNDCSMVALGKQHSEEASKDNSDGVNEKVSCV
- assay_procedure: Test Example 1-2: 5-HT2A receptor binding inhibition test ([3H]-Ketanserin; non-specific ligand Ketanserin)
- condition_summary: [3H]-Ketanserin; non-specific binding with 500 µmol/L Ketanserin; room temperature (25°C), 1.5 hours; read-out: h 5-HT2A Ki
Threshold check on Ki: strictly below 0.4 nM is label 1; on or above 0.4 nM is label 0.

Please review the following examples before continuing.
structure_smiles_string | label_class
Cc1nc(COC2CCOCC2)nc(C)c1-c1cc(Nc2ncc(C(F)(F)F)cc2Cl)ncc1OCCO | label 0
COCc1nc(C)c(-c2cc(Nc3ncc(-c4ccc(Cl)cn4)cc3Cl)ncc2OCCO)c(C)n1 | label 0
Cn1ncc(Cl)c1-c1cc(Nc2ccc(OCC(F)(F)F)cn2)ncc1OCCO | label 1
Cn1ncc(Br)c1-c1cc(Nc2nc3cc(Br)ccc3n2C)ccc1OCCO | label 0
Cn1ncc(Br)c1-c1cc(Nc2ncc(C#N)s2)ccc1OCCO | label 1

Field: next compound
**Q:** Regarding "COCc1nc(C)c(-c2cc(Nc3ncc(-c4cccc(C(F)F)c4)cc3Cl)ncc2OCCO)c(C)n1" , kindly confirm whether its Ki is beneath 0.4 nM.
**A:** label 0

---

- measured_on: human recombinant 5-HT2A receptor (Homo sapiens)
- Construct: expressed in transfected cells; host or cells: Jump-In HEK cells (membrane preparation)
- assay_procedure: Test Example 1-2: 5-HT2A receptor binding inhibition test ([3H]-Ketanserin; non-specific ligand Ketanserin)
- condition_summary: [3H]-Ketanserin; non-specific binding with 500 µmol/L Ketanserin; room temperature (25°C), 1.5 hours; read-out: h 5-HT2A Ki
- Description: The Kd value is calculated when the lot of the cell membrane is changed. […] The radioactivity of [^3H]-Ketanserin bound to the 5-HT2A receptor is measured using Microbeta2 (PerkinElmer) at a measurement time of 1 min/well. The Saturation curve is drawn from the measured value, and the Kd value is calculated from the slope of the Scatchard Plot. […]
measured_metric: log10 of Ki (log10 of the value in nM)
Please note: log10 values; quantity Ki; unit nM.

Example results:
molecule | test_value
COCCc1nc(C)c(-c2cc(Nc3ncc(C(F)(F)F)cc3Cl)ncc2OCCO)c(C)n1 [Compound I-217] | 0.24
Cc1cc(Cl)cnc1Nc1cc(-c2c(C)cnn2C)c(OCCO)cc1F [Compound I-172] | -0.09
Cc1nc(C)c(-c2cc(Nc3ccc(-c4ccc(C(F)(F)F)cc4)cn3)ncc2OCCO)c(C)n1 [Compound I-303] | -0.42
Cn1ncc(C#N)c1-c1cc(Nc2ccc(Cl)cn2)ccc1OCCO [Compound I-102] | -0.58
Cn1ncc(Br)c1-c1cc(Nc2ncc(Cl)cn2)ccc1OCCO [Compound I-119] | -0.50
Cn1ncc(F)c1-c1cc(Nc2ncc(C(F)(F)F)cc2F)cnc1OCCO [Compound I-127] | -0.57
Cc1nc(COC(F)F)nc(C)c1-c1cc(Nc2ncc(C(F)(F)F)cc2Cl)ncc1OCCO [Compound I-203] | 0.29

Let's switch to this molecule now.
**Q:** Record request: log10 of Ki value, item COCc1nc(C)c(-c2cc(Nc3ncc(C4CC(F)(F)C4)cc3Cl)ncc2OCCO)c(C)n1 [Compound I-195]
**A:** 0.83

---

In this section we review reported pKi values for a set of compounds.
- measured_on: human recombinant 5-HT2C receptor (Homo sapiens, UniProt P28335)
- Construct: expressed in transfected cells; host or cells: Jump-In HEK cells (membrane preparation)
- Sequence (P28335 33-458): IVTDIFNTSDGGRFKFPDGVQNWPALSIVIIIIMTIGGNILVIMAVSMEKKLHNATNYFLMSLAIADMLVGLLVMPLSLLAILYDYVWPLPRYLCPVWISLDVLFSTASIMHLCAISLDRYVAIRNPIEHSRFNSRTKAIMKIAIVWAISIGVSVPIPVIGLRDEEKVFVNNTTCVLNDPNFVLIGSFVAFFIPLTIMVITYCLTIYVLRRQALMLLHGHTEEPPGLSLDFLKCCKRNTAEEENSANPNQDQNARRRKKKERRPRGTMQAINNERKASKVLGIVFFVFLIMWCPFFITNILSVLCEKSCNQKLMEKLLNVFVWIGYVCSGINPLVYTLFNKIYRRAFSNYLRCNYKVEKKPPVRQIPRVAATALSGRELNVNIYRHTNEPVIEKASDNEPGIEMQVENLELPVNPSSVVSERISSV
- assay_procedure: Test Example 2: 5-HT2C receptor binding inhibition test ([3H]-Mesulergine; non-specific ligand Serotonin HCl)
- condition_summary: human serotonin 5-HT2C receptor binding activity
Worth noting: pKi values are minus log10 of concentrations stated in mol/L.

Example results:
structure_smiles_string | pKi
Cn1ncc(Cl)c1-c1nc(Nc2ccc(OC(F)(F)F)cn2)c(F)cc1OCCO | 8.28
COCc1nc(C)c(-c2cc(Nc3ncc(-c4ccc(F)cc4)cc3F)ncc2OCCO)c(C)n1 | 9.41
Cc1nc(C)c(-c2cc(Nc3ccc(Cl)cn3)c(F)cc2OCCO)c(C)n1 | 8.27
Cc1nc(C)c(-c2cc(Nc3ccc(-c4ccc(F)cc4)cn3)ncc2OCCO)c(C)n1 | 8.86
Cn1ncc(C#N)c1-c1cc(Nc2ccc(-c3ccc(Cl)cc3)cn2)ncc1OCCO | 9.18
COCc1nc(C)c(-c2cc(Nc3ncc(-c4ccc(OC(F)F)cc4)cc3Cl)ncc2OCCO)c(C)n1 | 9.32
COCc1nc(C)c(-c2cc(Nc3ncc(-c4ccc(Cl)cc4F)cc3Cl)ncc2OCCO)c(C)n1 | 9.50

Let's switch to this compound now.
**Q:** Record request: pKi value, item "Cc1nc(C)c(-c2cc(Nc3ccc(C4(C(F)(F)F)CC4)cn3)ncc2OCCO)c(C)n1"
**A:** 8.36
